Each entry below carries its recorded Neutralization IC50 (RSV subtype A).
target-of-assay: RSV F on RSV-A2 virus (Respiratory syncytial virus (RSV-A2))
experiment-description: cell-based or functional assay

Req: Returns the measured Neutralization IC50 (RSV subtype A) for the input binder. Input: ADI-41264 (antibody, V domains shown) VH: EVQLVESGGGLVKPGGSLRLSCAASGFTFSNTWMSWVRQAPGKGLEWVGHIKSKTDGGTTDYAAPVKGRFTISRDDSKSILNLHLNSLKTEDSAVYYCAALPPISGWYYTPGFWGQGTLVTVSS VL: SYELTQPPSMSVSPGQTARITCFGDAVPKKYVYWYQQKSGQAPVMVIYDDRRRPSGIPERFSGSSSGARATLTISGAQVEDEADYYCYSTDGSGNPSFGGGTKLTVL
Resp: > 25 µg/mL

Req: Check ADI-41267 (antibody, V domains shown) VH: QVQLVQSGPGLVKPSGTLSLTCAVSGGSISTTHWWSWVRQPPGKGLEWIGEIYHSGSTNYNPSLKSRVTISVDKSRSQFSLKLTSVTAADTAVYYCARGDPLCSGGICYSGYFDYWGQGTLVTVSS VL: SYVLTQPPSVSVSPGQTATITCSGDKLGDQYACWYQQKSGQSPVLVIYRDNKRPSGIPERFSGSNSGNTATLTISETQAMDEADYYCQAWGSSSVVFGGGTKVTVL too.
Resp: > 25 µg/mL

Req: Check ADI-41274 (antibody, V domains shown) VH: EVQLVESGGGLVKPGGSLRLSCAASGFSFSSYAMNWVRQAPGKGLQWVSSISAGSSYIDYADSVKGRFTISRDNAENSLFLQMNSLRVEDTAVYYCARVGSYTHGYEFDYWGQGTLVTVSS VL: QPVLTQPPSVSGAPGQRVTISCTGSNSNIGAGYDVHWYQQLPGTAPKLLIYASTIRPSGVPDRFSGSKSGTSASLAITGLQAEDEADYYCQSYDRNLSVVFGGGTKVTVL too.
Resp: 0.109 µg/mL
